Test system: L1210 leukemia ip in BDF1 mice, survival T/C
Experiment: NCI In Vivo Anticancer Drug Screen. Data for tumor model L1210 Leukemia (intraperitoneal) in B6D2F1 (BDF1) mice
Conditions: endpoint: mean survival time; dose: 25.0 mg/kg/injection; schedule: Q01DX009 (ip); vehicle: Klucel (hydroxypropylcellulose) (HPC); higher = longer survival
Toxic doses and inconclusive results are not listed.
Task for the reader: assign each of the following molecules its reported T/C.

// batch mode: one T/C value per listed entry
1. CC1(C)C(=O)N(Cl)C(=O)N1Cl
2. CC(C)c1ccccc1NC1=NCCO1

Marked response:
1. 91 % of control
2. 89 % of control

// batch mode: one T/C value per listed entry
1. C[C@H]1C[C@@H]2[C@H]([C@@H](O)C[C@@]3(C)[C@H]2CC[C@]3(O)C(=O)CO)[C@@]2(C)C=CC(=O)C=C12
2. CC(C)(C)CC(C)(C)c1ccc(OCCOC(=O)c2ccccc2C(=O)O)cc1
3. COc1cc(OC)cc(C(O)C(C)NC(C)C)c1 (stereo not drawn)
4. O=C1C=CC(=O)C(c2ccccc2)=C1

Marked response:
102 % of control
97 % of control
92 % of control
100 % of control

// batch mode: one T/C value per listed entry
1. C=C1CC(c2ccc(S(=O)(=O)N(CC)CC)cc2)OC1=O (stereo not drawn)
2. CC(C)C1C(C)N1C(C)C (stereo not drawn)

Marked response:
1: 98 % of control; 2: 107 % of control

###

Test system: L1210 leukemia ip in BDF1 mice, survival T/C
Assay: NCI In Vivo Anticancer Drug Screen. Data for tumor model L1210 Leukemia (intraperitoneal) in B6D2F1 (BDF1) mice
Settings: endpoint: mean survival time; dose: 200.0 mg/kg/injection; schedule: Q04DX003 (ip); vehicle: Klucel (hydroxypropylcellulose) (HPC); higher = longer survival
Toxic doses and inconclusive results are not listed.
OBSERVATION TYPE: T/C

COc1ccc(NC(=O)c2ccccc2Cl)cc1	97 % of control
Cc1cc(NC(=O)NC/C=C/Br)c2ccccc2n1	93 % of control
O=C(N/N=C/c1ccccc1)c1ccc(Cl)cc1	100 % of control
c1ccc(P(CC[As](c2ccccc2)c2ccccc2)CC[As](c2ccccc2)c2ccccc2)cc1	93 % of control
N#Cc1ccc(N2CCCc3ccccc32)c([N+](=O)[O-])c1	92 % of control

Exam item: T/C for "CCCCCCCCCCC(=O)CCC" ?
Marked response: 90 % of control

###

System: L1210 leukemia ip in BDF1 mice, survival T/C
Experiment: NCI In Vivo Anticancer Drug Screen. Data for tumor model L1210 Leukemia (intraperitoneal) in B6D2F1 (BDF1) mice
Details: endpoint: mean survival time; dose: 200.0 mg/kg/injection; schedule: Q01DX009 (ip); vehicle: saline with Tween-80; higher = longer survival
Toxic doses and inconclusive results are not listed.
Task for the reader: assign each of the following compounds its reported T/C.

CCOP(=S)(NCCOC)OCC	94 % of control

// batch mode: one T/C value per listed entry
1. CC(C)(C)C(=O)CC(=O)C(C)(C)C.CC(C)(C)C(=O)CC(=O)C(C)(C)C.CC(C)(C)C(=O)CC(=O)C(C)(C)C.[Pr]
2. CC(=O)Nn1cnc2c(=S)nc[nH]c21
3. Cc1cc(=O)oc2cc(OC(=O)Nc3ccc(Cl)cc3C(F)(F)F)ccc12
4. COc1ccc(/C=N/NC(=O)CNC(=O)c2ccc(Cl)c(Cl)c2)cc1OC
5. CCN(C(=O)CC(C)=O)c1ccccc1

Marked response:
1. 88 % of control
2. 93 % of control
3. 97 % of control
4. 102 % of control
5. 93 % of control

###

Test system: L1210 leukemia ip in BDF1 mice, survival T/C
Test: NCI In Vivo Anticancer Drug Screen. Data for tumor model L1210 Leukemia (intraperitoneal) in B6D2F1 (BDF1) mice
Details: endpoint: mean survival time; dose: 400.0 mg/kg/injection; schedule: Q04DX002 (ip); vehicle: saline with Tween-80; higher = longer survival
Inconclusive results and toxic doses are left out.
Task for the reader: assign each of the following compounds its reported T/C.

For orientation, consider the following solved cases.
CCOC(=O)C(C(C)=O)C(c1ccccc1)C(C(C)=O)C(=O)OCC (configuration not stated)	104 % of control
C1CCC2C(C1)CCCC2CCC1CCCC2CCCCC21 (configuration not stated)	100 % of control
CCCCC[CH2][Sn]([CH2]CCCCC)([CH2]CCCCC)[NH]S(=O)(=O)c1ccc(C)cc1	94 % of control
CCCCCCCN(CCCCCCC)C(=O)N(CC)CC	97 % of control
Cc1c(O)c2ccccc2[nH]c1=O	106 % of control

// batch mode: one T/C value per listed entry
1. COc1ccccc1NC(=O)Nc1ccc(S(N)(=O)=O)cc1
2. Cc1c(-c2ccccc2)sc(N)c1C#N
3. CC(=O)c1ccc(CCC(=O)O)cc1
4. CCOC(=O)C(C(C)=O)C(c1ccc(N(C)C)cc1)C(C(C)=O)C(=O)OCC (configuration not stated)
5. CSc1nc(SCc2ccccc2)[nH]c(=O)n1

Marked response:
1: 95 % of control; 2: 96 % of control; 3: 90 % of control; 4: 89 % of control; 5: 98 % of control

// batch mode: one T/C value per listed entry
1. CCCN(CCC)S(=O)(=O)CC
2. Fc1cc(F)c(F)c(Nc2ccccc2)c1F

Marked response:
1. 99 % of control
2. 106 % of control

###

Tested on: L1210 leukemia ip in BDF1 mice, survival T/C
Assay: NCI In Vivo Anticancer Drug Screen. Data for tumor model L1210 Leukemia (intraperitoneal) in B6D2F1 (BDF1) mice
Settings: endpoint: mean survival time; dose: 200.0 mg/kg/injection; schedule: Q01DX001 (ip); vehicle: saline with Tween-80; higher = longer survival
Inconclusive results and toxic doses are left out.
Task for the reader: assign each of the following compounds its reported T/C.

For orientation, consider the following solved cases.
Nc1nc(=S)[nH][nH]1	105 % of control
C/C=C/C=C/C(=O)c1cc(C#N)c(OC)cc1O	90 % of control
Nc1ccc(OCCCOc2ccccc2)cc1	102 % of control
O=C(NC(=S)Nc1cccc(F)c1)c1cccc([N+](=O)[O-])c1	93 % of control
ClC1=NC(c2ccccc2)N2C(Cl)C12 (configuration not stated)	95 % of control

// batch mode: one T/C value per listed entry
1. Cc1c(-c2ccccc2)sc(N)c1C#N
2. CCCCCSc1cccc(N)c1

Marked response:
93 % of control
102 % of control

###

System: L1210 leukemia ip in BDF1 mice, survival T/C
Experiment: NCI In Vivo Anticancer Drug Screen. Data for tumor model L1210 Leukemia (intraperitoneal) in B6D2F1 (BDF1) mice
Conditions: endpoint: mean survival time; dose: 10.0 mg/kg/injection; schedule: Q01DX001 (ip); vehicle: saline; higher = longer survival
Toxic doses and inconclusive results are not listed.
OBSERVATION TYPE: T/C

For orientation, consider the following solved cases.
CCCCc1ccncc1	100 % of control
CC1(C)N=C(N)N=C(N)N1c1cccc(CCCCc2cccc(N)c2)c1	102 % of control
O=c1nc2n(CCN(CCO)CCO)c3cc(Cl)c(Cl)cc3nc-2c(=O)[nH]1	95 % of control
c1cc(N2CCOCC2)cc(NC2CCCCC2)n1	104 % of control
Cc1ccc(C(=O)CCCN2CCOCC2)c(C)c1	97 % of control

// batch mode: one T/C value per listed entry
1. CN=C(N)NCCCCCCCCNC(N)=NC
2. COC(=O)/C=C(\C(=O)OC)n1ccccc1=O

Marked response:
101 % of control
98 % of control

###

System: L1210 leukemia ip in BDF1 mice, survival T/C
Assay: NCI In Vivo Anticancer Drug Screen. Data for tumor model L1210 Leukemia (intraperitoneal) in B6D2F1 (BDF1) mice
Conditions: endpoint: mean survival time; dose: 50.0 mg/kg/injection; schedule: Q04DX002 (ip); vehicle: saline with Tween-80; higher = longer survival
Toxic doses and inconclusive results are not listed.
Task for the reader: assign each of the following compounds its reported T/C.

For orientation, consider the following solved cases.
CN(C)C(=S)Oc1ccc(S(=O)(=O)F)c(Cl)c1Cl	92 % of control
Oc1ccc2ccccc2c1N=Nc1ccccn1	98 % of control

// batch mode: one T/C value per listed entry
1. CCCC(CN(C)C)C(=O)c1ccccc1 (centres undefined)
2. CC(C)(C)Sc1nc2ccccc2s1
3. Cc1ccc(C(C)(C)CP(c2ccccc2)c2ccccc2)cc1
4. CC(C)c1ccccc1NC1=NCCO1
5. O=[N+]([O-])c1ccc(-c2nnc(-c3ccccc3O)o2)cc1
6. Nc1ncnc2oc(-c3ccccc3)c(-c3ccccc3)c12
7. c1ccc2c(c1)Cc1cc(NC3=NCCO3)ccc1-2

Marked response:
["93 % of control", "93 % of control", "92 % of control", "96 % of control", "92 % of control", "91 % of control", "93 % of control"]
